- EXPERIMENT_DESCRIPTION: qHTS of pediatric cancer cell lines to identify multiple opportunities for drug repurposing: Primary screen for OHS-50 cells (AID 1347103); note: nearly all actives have a fitted effect of over 40% in size
- CONDITIONS: OHS-50 osteosarcoma viability, CellTiter-Glo luminescence, 48 h; series mostly up to 57.3 µM
Inconclusive results are not listed. The source made the active and inactive calls. Calls come from the whole dose curve; as a rule, active = well fitted cell-killing curve with a large enough effect; inconclusive = small, poorly fitted or top-dose-only effect; inactive = no such curve, though single readings can be large or run the other way.
Possible outcomes: active, inactive

1. CCCCOCCOc1nc(-c2ccc(C(=O)O)c(F)c2)sc1C : active
2. CN1C(=O)C(Cc2c[nH]c3ccccc23)NC1=S (centres undefined) : inactive
3. O=C(c1ccc(F)c(F)c1Nc1ccc(I)cc1F)N1CC(O)([C@H]2CCCCN2)C1 : active
4. CC(=O)O[C@]1(C(C)=O)CC[C@H]2[C@@H]3C=C(Cl)C4=CC(=O)[C@@H]5C[C@H]5[C@]4(C)[C@@H]3CC[C@@]21C : active
5. CCc1cc(-c2n[nH]c(C)c2-c2ccc3c(c2)OCCO3)c(O)cc1O : active
6. CN1CCN(c2cccc(Nc3nc4c(-c5ccc(S(C)(=O)=O)cc5)cccn4n3)c2)CC1 : active
7. C[C@@H]1CC=CC=CC=CC=C[C@@H](O[C@@H]2O[C@H](C)[C@@H](O)[C@H](N)[C@H]2O)C[C@@H]2O[C@](O)(C[C@@H](O)C[C@@H]3O[C@@H]3C=CC(=O)O1)C[C@H](O)[C@@H]2C(=O)O : active
8. Fc1ccc(C(c2ccc(F)cc2)N2CCN(CC=Cc3ccccc3)CC2)cc1 : inactive
9. Cc1cc(-c2ncc(CC(=O)Nc3ccc(-c4cnccn4)cn3)cc2C)ccn1 : active
10. CC[C@H](C)C(=O)O[C@H]1C[C@H](O)C=C2C=C[C@H](C)[C@H](CC[C@@H](O)C[C@@H](O)CC(=O)O)[C@H]21 : inactive
11. CNC(=O)[C@H](CC1=CN=C2C=CCC=C12)NC(=O)[C@@H](CC(=O)NO)CC(C)C : active
12. c1ccc(-c2oc3ncnc(NC[C@@H]4CCCO4)c3c2-c2ccccc2)cc1 : active
13. C[C@@H]1C[C@H]2[C@@H]3CCC4=CC(=O)C=C[C@]4(C)[C@@]3(F)[C@@H](O)C[C@]2(C)[C@@]1(O)C(=O)CO : inactive
14. CN(C)c1nc(Cc2ccc(NC(=O)c3ccc(C(F)(F)F)cc3)cc2)nc(N(C)C)c1CC(=O)O : inactive
15. CN(CC=CC#CC(C)(C)C)Cc1cccc2ccccc12 : inactive
16. CC(C)C[C@@H](C(=O)N[C@H](C(=O)OC1CCCC1)c1ccccc1)[C@H](O)C(=O)NO : active
17. O=C(c1ccc(C=Cc2n[nH]c3ccccc23)cc1)N1CCNCC1 : active
18. COc1ccc(-c2ccc3ncc4c(c3c2)n(-c2ccc(N3CCNCC3)c(C(F)(F)F)c2)c(=O)n4C)cn1 : active
19. C[C@]12C=CC(=O)C=C1CC[C@@H]1[C@@H]2[C@@H](O)C[C@@]2(C)[C@@H]1CC[C@]2(O)C(=O)CO : inactive
20. Cc1ccccc1-n1c(Cn2nc(-c3cccc(O)c3)c3c(N)ncnc32)nc2cccc(C)c2c1=O : active
21. Cc1cccc2c1CC[C@H](CN1CCC(c3c(Cl)cccc3Cl)CC1)C[C@@H]2O : active
22. O=C1NC(=O)C(=Cc2ccc(-c3ccc(F)cc3O)o2)S1 : active
23. C=CC[N+]1([C@H]2C[C@H]3[C@@H]4CC[C@H]5C[C@H](O)[C@@H](N6CCOCC6)C[C@]5(C)[C@@H]4CC[C@]3(C)[C@H]2OC(C)=O)CCCC1 : inactive
24. CCCCCOC(=O)Nc1nc(=O)n([C@@H]2O[C@H](C)[C@@H](O)C2O)cc1F (some centres undefined) : inactive
25. Cc1ccc(C(=O)N(CCCN)[C@@H](c2nc3cc(Cl)ccc3c(=O)n2Cc2ccccc2)C(C)C)cc1 : active
26. COc1cc2ncnc(Nc3cc(Br)c(O)c(Br)c3)c2cc1OC : active
27. CCOC(=O)N1c2ccc(C(F)(F)F)cc2[C@@H](N(Cc2cc(C(F)(F)F)cc(C(F)(F)F)c2)C(=O)OC)C[C@H]1CC : active
28. CO[C@@H]1C(N(C)C(=O)c2ccccc2)C[C@H]2O[C@]1(C)n1c3ccccc3c3c4c(c5c6ccccc6n2c5c31)C(=O)NC4=O (some centres undefined) : inactive
29. CNC(=O)c1c(-c2ccc(F)cc2)oc2cc(N(CCO)S(C)(=O)=O)c(C3CC3)cc12 : active
30. Nc1ncnc2c1ncn2[C@@H]1O[C@H](CO)[C@@H](O)[C@@H]1O : active
31. O=C(O)C1=CO[C@@H](O[C@@H]2O[C@H](CO)[C@H](O)[C@H](O)[C@H]2O)[C@@H]2C(CO)=CC[C@H]12 : inactive
32. Nc1ccn([C@@H]2O[C@H](CO)[C@@H](O)[C@H]2O)c(=O)n1 : active
33. CC1CNc2c(cccc2S(=O)(=O)N[C@@H](CCCN=C(N)N)C(=O)N2CC[C@@H](C)C[C@@H]2C(=O)O)C1 (some centres undefined) : inactive
34. CCOC(=O)N1CCN([N+]([O-])=NOc2cc(ON=[N+]([O-])N3CCN(C(=O)OCC)CC3)c([N+](=O)[O-])cc2[N+](=O)[O-])CC1 : inactive
